Recorded melting point by entry

These recorded examples may help you get a feel for the data.
{"structure": "Nc1ncnc2c1N=C(c1cccnc1)CO2", "melting point": "> 220 °C"}
{"structure": "CC(=O)N1CCC(c2ccc(C3=Nc4c(N)ncnc4OC3(C)C)cc2)CC1", "melting point": "232 to 237 °C"}
{"structure": "CC1(C)Oc2ncnc(N)c2N=C1c1ccc([C@H]2CC[C@H](CCC(=O)N3CCC[C@H]3CO)CC2)cc1", "melting point": "143 to 160 °C"}
{"structure": "CC1(C)Oc2ncnc(N)c2N=C1c1ccc([C@H]2CC[C@H](C(=O)N3CCC(C(=O)O)CC3)CC2)cc1", "melting point": "> 250 °C"}
{"structure": "CC1(C)Oc2ncnc(N)c2N=C1c1ccc([C@H]2CC[C@H](CCC(N)=O)CC2)cc1", "melting point": "244 to 246 °C"}

Query string: Look up melting point for this molecule: `Cc1nc(N)c2c(n1)OC(C)(C)C(c1ccc([C@H]3CC[C@H](CNC(=O)OCC(C)C)CC3)c(Cl)c1)=N2`
Result string: 205 to 209 °C

Query string: So what does the record say about melting point for `CC1(C)Oc2nc(C(F)(F)F)nc(N)c2N=C1c1ccc([C@H]2CC[C@H](Cc3nc(=O)o[nH]3)CC2)c(Cl)c1` ?
Result string: 236 to 237 °C

Query string: Find the recorded melting point belonging to `CC1(C)Oc2ncnc(N)c2N=C1c1ccc([C@H]2CC[C@H](CCN3CCC(CCO)CC3)CC2)cc1` and report it.
Result string: 221 to 222 °C

Query string: What value of melting point has been recorded for this entry: `Cc1nc(N)c2c(n1)OC(C)(C)C(c1ccc([C@H]3CC[C@H](CC(=O)NCC(N)=O)CC3)cc1)=N2`
Result string: 142 to 144 °C

Query string: // lookup melting point for `CC1(C)Oc2ncnc(N)c2N=C1c1ccc([C@H]2CC[C@H](CCNC(=O)CO)CC2)cc1`
Result string: 196 to 198 °C

Query string: Entry under review: `Cc1nc(N)c2c(n1)OC(C)(C)C(c1ccc([C@H]3CC[C@H](CCNC(=O)CO)CC3)cc1)=N2` . Reported melting point?
Result string: 185 to 186 °C
